test: yeast display, Sf9 membrane polyspecificity reagent, FACS + sequencing; frameworks hold sequencing errors
quantityMeasured: polyreactivity (PSR sort gate)

>>> endpointresult("QVQHVESGGGLVQAGGSLRLSCAASGSIFRRYDLGWSRQAPGKERELVAAISSSGGSTYYADSVKGRFTISRDNAKNTVYLQMNSLKPEDTAVYYCAADIYDDDRSESTEYDYWGQGTQVTVSS")
"low polyreactivity"
>>> endpointresult("QVQLGESGGGLVQAGGSLRISCAASGSILIANAMGWYRQAPGKERELVAPISRSGSTTYYADSVKGRFTISRDNAKNTVYLQMNSLKPEDTAVYYCNARYSLHSYYWFIYDSWGQGTQVTGSS")
"low polyreactivity"
>>> endpointresult("QVQLVESGGGLVQAGGSLRLSCAASGIFFPNAMGCYRQAPGKERELVAAISWTGGSTFYADSVKGRFTISRDNAKNTVYLQMNSLKPEDTAVYYCAAEEYYAGWTYDYWGQGTQVTVSS")
"high polyreactivity"
>>> endpointresult("QVQLVESGGGLVQAGGSLRLSCAASGRTFRPYAMGWYRQAPGKERELVAAIRGSTGSTYADSVKGRFTISRDNAKNTVYLQMNSLKPEDTAVYSCATYRYYSGLGGGYWGQGTQVTVSS")
"high polyreactivity"
>>> endpointresult("QVQLVESGGGLVQAGGSLRLSCAASGSIFRFNAMGWSRQAPGKERELVARITSGGSTNYADSVKGRFTISRDNAKNTVYLQMNSLKPEDTAVYYCAAVYLLRGRRVTSYPYGYWGQGTQVTVSS")
"high polyreactivity"
